Entry source: patent US20250320496A1

Test system: human ABCB11 mRNA
ASSAY NAME: ASO treatment of primary human hepatocytes (PHH), ABCB11 mRNA by RT-qPCR normalized to B2M
Type: cell-based
SETTINGS: primary human hepatocytes, 5 μM ASO, normalized to untreated PHHs (UNT)
Strand notation (5' to 3'): a small letter for the sugar, then the base; units joined by * are phosphorothioate-linked, units joined directly phosphodiester-linked; [ ] holds rarer units or linkages, { } end groups; capitals alone tell only the bases. e = 2'-O-(2-methoxyethyl) (MOE); [5mC] = 5-methylcytosine; d = 2'-deoxy (DNA)
Entries and their ABCB11 mRNA FC (5 μM ASO vs. UNT) values follow.
ASSAY READOUT: ABCB11 mRNA FC (5 μM ASO vs. UNT) (fold change)

SUBSTANCE	SYSTEM TESTED	DISPLAY UNIT	EXPERIMENTAL VALUE
CO-7044 (antisense eT*eT*eT*eT*eG*e[5mC]*eT*eT*eG*eG*eT*e[5mC]*eA*eA*eG*eA*eG*eG*eA*eA)	human ABCB11 mRNA	fold change	0.943
CO-3984: ASO targeting the paRNA regRNA RR63 (antisense e[5mC]*eA*eT*eT*eT*eA*eG*eA*eG*eA*e[5mC]*eA*eA*eA*eG*eA*eA*eT*e[5mC]*eG)	human ABCB11 mRNA	fold change	1.111
CO-7112 (eT*eA*e[5mC]*eA*eT*dT*dT*eA*dG*dA*eG*dA*d[5mC]*eA*dA*dA*eG*dA*dA*eT*e[5mC]*eG*e[5mC]*eT; antisense)	human ABCB11 mRNA	fold change	0.98

* * *

Entries and their ABCB11 mRNA FC (5 μM ASO vs. UNT) values follow.
Test system: human ABCB11 mRNA
ASSAY NAME: ASO treatment of primary human hepatocytes (PHH), ABCB11 mRNA by RT-qPCR normalized to B2M
Type: cell-based
SETTINGS: primary human hepatocytes, 5 μM ASO, normalized to untreated PHHs (UNT)
Strand notation (5' to 3'): a small letter for the sugar, then the base; units joined by * are phosphorothioate-linked, units joined directly phosphodiester-linked; [ ] holds rarer units or linkages, { } end groups; capitals alone tell only the bases. e = 2'-O-(2-methoxyethyl) (MOE); l = locked nucleic acid (LNA); [5mC] = 5-methylcytosine; d = 2'-deoxy (DNA)
ASSAY READOUT: ABCB11 mRNA FC (5 μM ASO vs. UNT) (fold change)

SUBSTANCE	DISPLAY UNIT	EXPERIMENTAL VALUE
CO-7067 (eT*e[5mC]*eT*eG*lG*eA*eA*eA*eA*lT*eA*eA*eT*eG*l[5mC]*e[5mC]*eT*eT*eT*e[5mC]; antisense)	fold change	1.081
CO-3998: ASO targeting the paRNA regRNA RR63 (antisense eA*e[5mC]*e[5mC]*e[5mC]*e[5mC]*e[5mC]*e[5mC]*eT*e[5mC]*eA*e[5mC]*e[5mC]*eT*eT*eG*eGeT*eT*e[5mC]*e[5mC])	fold change	1.319
CO-4503 (antisense eA*eT*eT*eG*eT*eA*eG*eG*eT*eG*e[5mC]eT*eG*e[5mC]*eG*eG*eG*eT*eA*eT)	fold change	1.202
CO-4035 (antisense eG*eT*eT*e[5mC]*eA*eG*eT*eG*e[5mC]*eT*eT*eT*eA*eG*eA*eA*eT*eG*eA*eT)	fold change	0.926
CO-4480 (antisense e[5mC]*e[5mC]*eT*eG*eA*eG*eA*eT*eT*eG*eA*eG*e[5mC]*eT*eA*eT*eA*e[5mC]*eT*eG)	fold change	0.931
CO-7024 (antisense eG*e[5mC]*eT*eT*eA*eT*e[5mC]*eT*eG*eG*eA*eA*eA*eA*eT*eA*eA*eT*eG*e[5mC])	fold change	1.415
CO-4043 (antisense eG*e[5mC]*e[5mC]*e[5mC]*eA*e[5mC]*eT*e[5mC]*eT*eG*e[5mC]*eT*e[5mC]*eA*eA*eT*eT*eT*eG*e[5mC])	fold change	1.934
CO-7091 (eA*e[5mC]*e[5mC]*l[5mC]*e[5mC]*l[5mC]*e[5mC]*lT*e[5mC]*lA*e[5mC]*l[5mC]*eT*lT*eG*lG*eT*lT*e[5mC]*e[5mC]; antisense)	fold change	1.164
CO-7011 (antisense eT*eG*eT*eG*eG*dA*dT*eG*dT*dA*eG*dA*dT*eG*dA*dA*eT*dG*dG*e[5mC]*eA*eA*eG*eG)	fold change	1.284
CO-6670 (antisense eT*eA*eG*eT*eT*eT*eA*eG*eT*eT*eG*eA*e[5mC]*eT*eG*e[5mC]*eA*eG*eA*eG)	fold change	1.157
CO-4057 (antisense e[5mC]*eA*eG*e[5mC]*eA*e[5mC]*eA*eA*eA*eT*eA*eT*eA*eT*eT*eG*eG*eA*eG*eG)	fold change	1.245
CO-7104 (eT*eA*eT*e[5mC]*eT*dG*dG*eA*dA*dA*eA*dT*dA*eA*dT*dG*e[5mC]*d[5mC]*dT*eT*eT*e[5mC]*eT*eA; antisense)	fold change	0.918
CO-7106 (eA*e[5mC]*eA*eT*eT*eT*dA*dG*dA*dG*dA*d[5mC]*dA*dA*dA*dG*eA*eA*eT*e[5mC]*eG*e[5mC]; antisense)	fold change	1.246
CO-6674 (antisense eT*eG*eG*eA*eA*eG*eG*eA*e[5mC]*eA*e[5mC]*eA*eA*eT*eT*eT*e[5mC]*eT*eG*eT)	fold change	1.175
CO-7006 (antisense eG*eT*eG*eG*eA*eT*eG*eT*eA*eG*eA*eT*eG*eA*eA*eT*eG*eG*e[5mC]*eA*eA*eG)	fold change	1.279
CO-7198 (eG*eG*eT*eG*eG*lA*dG*d[5mC]*lA*dA*dA*d[5mC]*dT*lA*dG*dG*l[5mC]*eA*e[5mC]*eT*eG*eA; antisense)	fold change	1.075
CO-7200 (eA*eG*eG*eT*eG*eG*eA*eG*e[5mC]*eA*eA*eA*e[5mC]*eT*eA*eG*eG*e[5mC]*eA*e[5mC]*eT*eG*eA*eG; antisense)	fold change	1.277
CO-6986 (antisense eT*eG*eG*lA*eT*dG*dT*lA*dG*dA*dT*lG*dA*dA*dT*lG*eG*e[5mC]*eA*eA)	fold change	0.998
CO-4518 (antisense e[5mC]*eT*eA*e[5mC]*eT*eA*eG*eT*eT*eG*eT*eT*eA*e[5mC]*eA*e[5mC]*e[5mC]*eT*eT*eA)	fold change	0.981
CO-4496 (antisense eG*eT*eA*e[5mC]*eT*eA*eG*eA*e[5mC]*eT*e[5mC]*eT*eG*e[5mC]*e[5mC]*eT*eG*eT*eG*eT)	fold change	0.984
CO-6983 (antisense eA*eG*eA*eA*eG*eA*e[5mC]*eA*eG*eA*eA*eG*eT*eG*eA*eG*eG*e[5mC]*eA*eT)	fold change	1.065
CO-4023 (antisense e[5mC]*eA*e[5mC]*eA*eA*e[5mC]*eA*eT*eT*eG*eT*eA*eT*eA*e[5mC]*eA*eA*eT*eA*e[5mC])	fold change	1.092
CO-7016 (antisense eA*eG*eT*eG*eA*lG*dG*d[5mC]*lA*dT*d[5mC]*dA*dG*lG*dT*dA*lA*eG*eT*eT*e[5mC]*e[5mC])	fold change	1.278
CO-7057 (antisense eA*e[5mC]*eT*eG*e[5mC]*eT*e[5mC]*eA*e[5mC]*e[5mC]*e[5mC]*e[5mC]*e[5mC]*e[5mC]*eT*e[5mC]*eA*e[5mC]*e[5mC]*eT)	fold change	1.145
